- Tested on: HCV 1a-H77 subgenomic replicon
- MEASUREMENT NOTES: microbe, parasite or virus in culture
- Type: cell-based, HCV genotype 1a
- CONDITION SET: Hepatitis C virus, stable replicon, 5% FBS, absence of human plasma; read-out: Stable Replicon 1a H77 5% FBS EC50
pEC50: −log10 of the molar value.
The following molecules are listed with their measured pEC50 values.
MEASURE NAME: pEC50

- MOLECULE: "CCOC(=O)CCCN(c1cc2oc(-c3ccc(F)cc3)c(C3=NOCCN3)c2cc1C1CC1)S(C)(=O)=O"
  TGT: "HCV 1a-H77 subgenomic replicon"
  REPORTED MEASUREMENT: 7.41
- MOLECULE: "CN(C)CCCN(c1cc2oc(-c3ccc(F)cc3)c(-c3ncc[nH]3)c2cc1C1CC1)S(C)(=O)=O"
  TGT: "HCV 1a-H77 subgenomic replicon"
  REPORTED MEASUREMENT: 7.07
- MOLECULE: "C[S+]([O-])CCN(c1cc2oc(-c3ccc(F)cc3)c(C3=NOCCN3)c2cc1C1CC1)S(C)(=O)=O (stereo not shown)"
  TGT: "HCV 1a-H77 subgenomic replicon"
  REPORTED MEASUREMENT: 7.33
- MOLECULE: "COc1ccc(CN(c2cc3oc(-c4ccc(F)cc4)c(-c4ncc(C)[nH]4)c3cc2C2CC2)S(C)(=O)=O)cc1"
  TGT: "HCV 1a-H77 subgenomic replicon"
  REPORTED MEASUREMENT: 6.40
- MOLECULE: "CS(=O)(=O)N(CCCC(=O)O)c1cc2oc(-c3ccc(F)cc3)c(C3=NOCCN3)c2cc1C1CC1"
  TGT: "HCV 1a-H77 subgenomic replicon"
  REPORTED MEASUREMENT: 6.01
- MOLECULE: "CC(C)(C)Oc1ncc(-c2ncc(CN(c3ccc4c(-c5ncc[nH]5)c(-c5ccccc5)oc4c3)S(C)(=O)=O)s2)c(OC(C)(C)C)n1"
  TGT: "HCV 1a-H77 subgenomic replicon"
  REPORTED MEASUREMENT: 6.06
- MOLECULE: "CS(=O)(=O)N(CCCc1noc(=O)[nH]1)c1cc2oc(-c3ccc(F)cc3)c(C3=NOCCN3)c2cc1C1CC1"
  TGT: "HCV 1a-H77 subgenomic replicon"
  REPORTED MEASUREMENT: 6.45

* * *

- System: HCV NS5B polymerase 1a-H77-C316Y
- MEASUREMENT NOTES: biochemical
- Design: species or system HCV genotype 1a
- CONDITION SET: ratio of enzyme IC50s, 1a H77-C316Y / 1a H77
MEASURE NAME: C316Y/1a Fold Resistance (fold)

- COMPOUND: "CS(=O)(=O)CCCCN(c1cc2oc(-c3ccc(F)cc3)c(-c3ncc[nH]3)c2cc1C1CC1)S(C)(=O)=O"
  RESULT UNIT: "fold"
  REPORTED MEASUREMENT: 13
- COMPOUND: "CC1NC(c2c(-c3ccc(F)cc3)oc3cc(N(CCO)S(C)(=O)=O)c(C4CC4)cc23)=NO1 (stereo not drawn)"
  RESULT UNIT: "fold"
  REPORTED MEASUREMENT: 19
- COMPOUND: "COc1ccc(CN(c2cc3oc(-c4ccc(F)cc4)c(C4=NC(C)CN4)c3cc2C2CC2)S(C)(=O)=O)cc1 (stereo not drawn)"
  RESULT UNIT: "fold"
  REPORTED MEASUREMENT: 15
- COMPOUND: "CS(=O)(=O)N(CC(O)CO)c1cc2oc(-c3ccc(F)cc3)c(-c3ncc[nH]3)c2cc1C1CC1 (stereo not drawn)"
  RESULT UNIT: "fold"
  REPORTED MEASUREMENT: 320
- COMPOUND: "CS(=O)(=O)N(CCCN)c1cc2oc(-c3ccc(F)cc3)c(-c3ncc[nH]3)c2cc1C1CC1"
  RESULT UNIT: "fold"
  REPORTED MEASUREMENT: 82
- COMPOUND: "CC(C)CCN(c1cn2nc(-c3ccc(F)cc3)c(-c3ncc[nH]3)c2cc1C1CC1)S(C)(=O)=O"
  RESULT UNIT: "fold"
  REPORTED MEASUREMENT: 52
- COMPOUND: "CCOP(=O)(CCCN(c1cc2oc(-c3ccc(F)cc3)c(C3=NOCCN3)c2cc1C1CC1)S(C)(=O)=O)OCC"
  RESULT UNIT: "fold"
  REPORTED MEASUREMENT: 8
- COMPOUND: "CC1NC(c2c(-c3ccc(F)cc3)oc3cc(N(CCS(C)(=O)=O)S(C)(=O)=O)c(C4CC4)cc23)=NO1 (stereo not drawn)"
  RESULT UNIT: "fold"
  REPORTED MEASUREMENT: 8
- COMPOUND: "Cn1cnc2ccc(-c3ncc(CN(c4ccc5c(-c6ncc[nH]6)c(-c6ccccc6)oc5c4)S(C)(=O)=O)s3)cc21"
  RESULT UNIT: "fold"
  REPORTED MEASUREMENT: 4
- COMPOUND: "CS(=O)(=O)N(CCC/C(N)=N/O)c1cc2oc(-c3ccc(F)cc3)c(C3=NOCCN3)c2cc1C1CC1"
  RESULT UNIT: "fold"
  REPORTED MEASUREMENT: 10
- COMPOUND: "CS(=O)(=O)N(CCCc1ccccc1)c1cc2oc(-c3ccc(F)cc3)c(-c3ncc[nH]3)c2cc1C1CC1"
  RESULT UNIT: "fold"
  REPORTED MEASUREMENT: 12
- COMPOUND: "C=CCN(c1cc2oc(-c3ccc(F)cc3)c(-c3ncc[nH]3)c2cc1C1CC1)S(C)(=O)=O"
  RESULT UNIT: "fold"
  REPORTED MEASUREMENT: 77
- COMPOUND: "CS(=O)(=O)N(CCCC#N)c1cc2oc(-c3ccc(F)cc3)c(C3=NOCCN3)c2cc1C1CC1"
  RESULT UNIT: "fold"
  REPORTED MEASUREMENT: 6
- COMPOUND: "COc1ccc(CN(c2cc3oc(-c4ccc(F)cc4)c(C4=NOC(C)N4)c3cc2C2CC2)S(C)(=O)=O)cc1 (stereo not drawn)"
  RESULT UNIT: "fold"
  REPORTED MEASUREMENT: 11
- COMPOUND: "C[S+]([O-])CCN(c1cc2oc(-c3ccc(F)cc3)c(C3=NOCCN3)c2cc1C1CC1)S(C)(=O)=O (stereo not drawn)"
  RESULT UNIT: "fold"
  REPORTED MEASUREMENT: 24

Source: patent US20160355530A1
